The values you see were collected from patent US11814366B2.

experiment: Cell viability (MTS) assay, HELF cells; assay type: cell-based; details: human, conditions of the HCMV assay
assay.metric: CC50 (µM)
Number only, in µM; omit the unit.

For the molecule O=C1NC(=S)N(CCc2ccccc2)C(=O)/C1=C\c1ccc(-c2ccc(C(=O)O)c(O)c2)[nH]1 [Compound 15b] , what CC50 is on record?
36.3

* * *

assay: Cell viability (MTS) assay, Huh-7 cells; format: cell-based; settings: human, conditions of the DENV-2 assay (Table 6)
assay.metric: CC50 (µM)
A number alone suffices; assume µM.

Sample answers from the record:
O=C1NC(=S)N(CCc2ccccc2)C(=O)/C1=C\c1ccc(-c2ccc(C(=O)O)c(O)c2)[nH]1 [Compound 15b]	7.9
O=C1NC(=S)N(CCc2ccc(O)cc2)C(=O)/C1=C\c1ccc(-c2ccc(C(=O)O)c(O)c2)[nH]1 [Compound 15f]	28
O=C1NC(=S)N(CCc2ccccc2)C(=O)/C1=C/c1ccc(-c2ccc(-c3nnn[nH]3)cc2)[nH]1 [Compound 15c]	70

Next, consider the following compound.
Look up CC50: O=C1NC(=S)N(Cc2ccccn2)C(=O)/C1=C\c1ccc(-c2ccc(-c3nnn[nH]3)cc2)[nH]1 [Compound 15p]
89

* * *

Catalogue of SI selectivity index values
test system: DENV-2; experiment: DENV plaque reduction assay on Huh-7 cells; type: cell-based, Dengue virus; conditions: DENV-2; CC50 divided by EC50
Please respond with just the number, no unit label.

O=C1NC(=S)N(CCc2ccccc2)C(=O)/C1=C\c1ccc(-c2ccc(C(=O)O)c(O)c2)[nH]1 [Compound 15b]	5.6
O=C1NC(=S)N(CCc2ccc(O)cc2)C(=O)/C1=C\c1ccc(-c2ccc(C(=O)O)c(O)c2)[nH]1 [Compound 15f]	3.6
O=C1NC(=S)N(CCc2ccccc2)C(=O)/C1=C/c1ccc(-c2ccc(-c3nnn[nH]3)cc2)[nH]1 [Compound 15c]	20.6

Let's switch to this molecule now.
Provide value of SI selectivity index for this record tested with DENV-2: O=C1NC(=S)N(Cc2ccccn2)C(=O)/C1=C\c1ccc(-c2ccc(-c3nnn[nH]3)cc2)[nH]1 [Compound 15p]
7.3

* * *

test: in vitro; details: African green monkey, CC50, conditions of the HSV-1 assay
assay.metric: CC50

Report CC50 for O=C1NC(=S)N(CCc2ccccc2)C(=O)/C1=C\c1ccc(-c2ccc(C(=O)O)c(O)c2)[nH]1 [Compound 15b] please.
> 300 µM

* * *

test: Cell viability (MTS) assay, HeLa cells; format: cell-based, human; details: human, HeLa cells; conditions of the HPV-16 assay
assay.metric: CC50

Entry O=C1NC(=S)N(CCc2ccccc2)C(=O)/C1=C\c1ccc(-c2ccc(C(=O)O)c(O)c2)[nH]1 [Compound 15b] : reported CC50 = ?
> 300 µM

* * *

tested on: RSV; assay: RSV inhibition assay on Hep-2 cells; assay type: cell-based, RSV strain A2; settings: human respiratory syncytial virus
assay.metric: EC50 (nM)
Give your result in nM as a bare value.

Fill in: EC50 of O=C1NC(=S)N(CCc2ccccc2)C(=O)/C1=C\c1ccc(-c2ccc(C(=O)O)c(O)c2)[nH]1 [Compound 15b] is ___
315

* * *

system: HIV Strain AD8; experiment: HIV-1 inhibition assay, strain NL(AD8), TZM-bl cells, CPRG readout; assay type: cell-based; conditions: Human immunodeficiency virus 1, virus pretreated 1 h at 37° C. with compound
assay.metric: pEC50
// scale note: pEC50 = -log10(conc_M); give the bare number

Using the record for O=C(O)c1ccc(-c2ccc(/C=C3\SC(=S)N(Cc4ccc(Cl)cc4)C3=O)[nH]2)cc1O [Compound 7b] , report its pEC50.
6.27
